Parameter: Percent Effect. Scope: all listed entries.
Molecular target: Arginase-2, mitochondrial (Homo sapiens)
Sequence (whole entry): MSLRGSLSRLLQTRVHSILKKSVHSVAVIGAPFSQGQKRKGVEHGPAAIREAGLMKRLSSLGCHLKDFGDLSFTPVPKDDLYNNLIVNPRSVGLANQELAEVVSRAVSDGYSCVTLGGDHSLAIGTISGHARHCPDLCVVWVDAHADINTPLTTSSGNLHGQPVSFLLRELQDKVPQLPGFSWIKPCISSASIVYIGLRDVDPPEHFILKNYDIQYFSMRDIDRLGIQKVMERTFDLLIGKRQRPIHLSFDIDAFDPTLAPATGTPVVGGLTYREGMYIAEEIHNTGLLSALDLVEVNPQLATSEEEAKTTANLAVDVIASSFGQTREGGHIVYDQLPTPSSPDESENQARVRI
Assay: in vitro enzyme assay to detect the production of urea directly proportional to the activity of Arginase II; also: in the data most compounds retested in dose-response had high values
Format: functional
Design: scale not given: direction of the effect not stated beside the values
Details: 33.3 µM
Write the answer as a number in %, unit excluded.

molecule: O=C(COc1cccc2c1CCC2=O)NCCOc1ccccc1
assay.metric: Percent Effect
test.value: 3.55
//
molecule: CC(C)OCCN1CCC(N2CCN(C)C2=O)CC1
assay.metric: Percent Effect
test.value: -6.05
//
molecule: O=C(NCCCn1cccn1)N1CCCC1c1ccncc1 (stereo not given)
assay.metric: Percent Effect
test.value: -1.56
//
molecule: Cc1cnc(N2CCn3cc(CNC(=O)CC4CC4)nc3C2)nc1
assay.metric: Percent Effect
test.value: 2.1
//
molecule: Cc1cc(C[S+]([O-])CC(=O)NCc2cccs2)no1 (stereo not given)
assay.metric: Percent Effect
test.value: -6.05
//
molecule: CCc1nnc2n1CCN(C(=O)c1csc(-c3cnn(C)c3)n1)C2
assay.metric: Percent Effect
test.value: 8.39

Find Percent Effect (Arginase-2, mitochondrial (Homo sapiens)) for the entry CCOCCn1nc(C)cc1C(=O)N1CCOCC(CO)C1 (stereo not given)
31.9

Also need COCCCN1CCC(NC(=O)C(C)C)CC1 , thanks.
-2

Also need CCc1nc(CCNC(=O)Nc2ccc(C(=O)NC)cc2C)cs1 , thanks.
-3.65

Also need O=S(=O)(c1ccccc1)N1CCN(CCn2ccnc2)CC1 , thanks.
3.64

Also need CCc1nnsc1C(=O)N1CCOC(c2nc(C)n[nH]2)C1 (stereo not given) , thanks.
-0.215

Also need COc1ccccc1CN(C)c1nccc(-c2cn(C)nc2C)n1 , thanks.
24

Also need O=C(Nc1ccc(F)c(Br)c1)N1CCCC1 , thanks.
2.92

* * *

Parameter: Percent Effect. Scope: all listed entries.
Molecular target: Tyrosyl-tRNA synthetase, putative (Trypanosoma cruzi (strain CL Brener)) (UniProt Q4DSP6)
Sequence (Q4DSP6 as listed by the source): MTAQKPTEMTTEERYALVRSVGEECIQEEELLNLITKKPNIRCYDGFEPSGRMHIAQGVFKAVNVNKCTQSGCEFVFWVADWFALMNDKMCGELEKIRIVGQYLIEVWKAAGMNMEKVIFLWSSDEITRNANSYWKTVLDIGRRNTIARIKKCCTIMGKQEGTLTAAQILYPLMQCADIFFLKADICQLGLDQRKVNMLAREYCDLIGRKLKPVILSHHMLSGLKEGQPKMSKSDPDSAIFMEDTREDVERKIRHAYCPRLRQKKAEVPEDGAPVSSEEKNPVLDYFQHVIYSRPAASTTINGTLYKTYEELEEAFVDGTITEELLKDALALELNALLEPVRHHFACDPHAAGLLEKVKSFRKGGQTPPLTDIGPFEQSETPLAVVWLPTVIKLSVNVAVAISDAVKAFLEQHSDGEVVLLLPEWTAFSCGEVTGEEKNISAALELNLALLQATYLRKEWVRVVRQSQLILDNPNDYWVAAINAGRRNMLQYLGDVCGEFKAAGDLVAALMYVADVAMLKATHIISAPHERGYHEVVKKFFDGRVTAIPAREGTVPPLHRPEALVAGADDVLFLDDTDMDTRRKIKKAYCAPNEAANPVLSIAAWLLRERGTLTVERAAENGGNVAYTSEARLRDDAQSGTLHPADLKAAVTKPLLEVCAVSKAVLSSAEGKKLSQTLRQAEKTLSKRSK
Test: Trypanosoma cruzi tyrosyl tRNA synthetase (TcYRS) SOP
Format: functional
Parameters: scale not given: direction of the effect not stated beside the values
Conditions: 30 µM
Write the answer as a number in %, unit excluded.

Worked cases, Percent Effect given:
molecule: CCN1CCN(C2CCN(Cc3nnc(C(C)(C)C)o3)CC2)C1=O
target.of.assay: Tyrosyl-tRNA synthetase, putative (Trypanosoma cruzi (strain CL Brener)) (UniProt Q4DSP6)
u: %
test.value: 14.1
//
molecule: CC(CNC(=O)N1CCN(c2cnccn2)CC1)Cc1cccs1 (centres undefined)
target.of.assay: Tyrosyl-tRNA synthetase, putative (Trypanosoma cruzi (strain CL Brener)) (UniProt Q4DSP6)
u: %
test.value: -6.1
//
molecule: Cc1ccc(NC(=O)c2n[nH]c(-n3cnnc3)n2)cc1C
target.of.assay: Tyrosyl-tRNA synthetase, putative (Trypanosoma cruzi (strain CL Brener)) (UniProt Q4DSP6)
u: %
test.value: 10.3

I have this molecule here, CCc1ncnc2c1CCN(C(=O)Cc1ccccn1)CC2 , and I need its recorded Percent Effect.
-5.13

Also need Cc1oc(-c2nc(C#N)c(N(C)C)o2)cc1S(=O)(=O)N1CCCC1 , thanks.
10.3

Also need COCCn1ccc(NC(=O)Nc2cccnc2)n1 , thanks.
7.79

Also need CN(C)CC1(O)CCN(S(=O)(=O)c2ccc(F)cc2)C1 (centres undefined) , thanks.
9.09

Also need Cc1ccc([C@@H]2CN(S(=O)(=O)C(C)C)C[C@H]2N(C)C)cc1 , thanks.
18.5

Also need CCN1CCCN(C(=O)c2cnc(OC(C)C)c(Cl)c2)CC1 , thanks.
-30.9

Also need O=C(CCc1nc2cccnc2[nH]1)NCc1cccnc1 , thanks.
15.4

Also need CC(NC(=O)NCC1(O)CCC1)c1ccc(OCC2CC2)c(F)c1 (centres undefined) , thanks.
7.79

Also need CCN(CC)C(=O)CCn1ncc2c(Cl)cccc21 , thanks.
2.56

Also need O=C(NCc1ccncc1)N(Cc1ccccc1F)C1CC1 , thanks.
16.1

Also need CN(CC(=O)N1CCC(Oc2ccccc2)CC1)c1cnccn1 , thanks.
25.6

Also need COc1cc(CNC(=O)Nc2cc(C(F)(F)F)c[nH]c2=O)ccn1 , thanks.
12.2

Also need c1cnc2c(C3CCN(Cc4ccsc4)CC3)n[nH]c2n1 , thanks.
9.09

* * *

Biological target: AMP-activated protein kinase, AMPK (Homo sapiens) (UniProt P54646+O43741+P54619+Q9UGJ0+Q9Y478+Q13131+Q9UGI9)
Experiment: AMP-dependent Kinase enzyme assay. An in vitro enzyme assay that detects ADP turnover that is directly proportional to AMPK activity. This uses naive AMPK that is activated during the assay with MK-8722
Assay type: functional
Design: scale not given: direction of the effect not stated beside the values
Details: 30 µM
assay.metric: Percent Effect

I have this compound here, COc1ccsc1C(=O)N1CCCC(n2nc(C)nc2C)C1 (configuration not stated) , and I need its recorded Percent Effect.
-4.74%

Also need CN(c1cccnn1)C1CCN(C(=O)c2ccc3c(c2)COC3)CC1 , thanks.
15.1%

Also need COc1ccccc1CC(=O)N1CCC(NCc2cc[nH]c2)CC1 , thanks.
-7.09%

Also need O=C(NCc1cccs1)[C@H]1CC[C@@H]2[C@@H](CCN2c2ncccn2)O1 , thanks.
-0.805%

Also need CN(CC(=O)N1CCN(c2ccccc2F)CC1)c1cnccn1 , thanks.
-1.85%

Also need c1ccc(Oc2cc(CNCC3CNc4ccnn4C3)ccn2)cc1 (configuration not stated) , thanks.
-0.557%

Also need Cc1cnn(CC2CCCN2C(=O)CCCc2nc(C)no2)c1 (configuration not stated) , thanks.
1.65%

Also need Cc1cccnc1NC(=O)NCc1ccc(N2CCNC(=O)C2)cc1 , thanks.
9.04%

* * *

Molecular target: Protein translocase subunit SecA (Escherichia coli (strain K12)) (UniProt P10408)
Sequence (P10408 whole entry): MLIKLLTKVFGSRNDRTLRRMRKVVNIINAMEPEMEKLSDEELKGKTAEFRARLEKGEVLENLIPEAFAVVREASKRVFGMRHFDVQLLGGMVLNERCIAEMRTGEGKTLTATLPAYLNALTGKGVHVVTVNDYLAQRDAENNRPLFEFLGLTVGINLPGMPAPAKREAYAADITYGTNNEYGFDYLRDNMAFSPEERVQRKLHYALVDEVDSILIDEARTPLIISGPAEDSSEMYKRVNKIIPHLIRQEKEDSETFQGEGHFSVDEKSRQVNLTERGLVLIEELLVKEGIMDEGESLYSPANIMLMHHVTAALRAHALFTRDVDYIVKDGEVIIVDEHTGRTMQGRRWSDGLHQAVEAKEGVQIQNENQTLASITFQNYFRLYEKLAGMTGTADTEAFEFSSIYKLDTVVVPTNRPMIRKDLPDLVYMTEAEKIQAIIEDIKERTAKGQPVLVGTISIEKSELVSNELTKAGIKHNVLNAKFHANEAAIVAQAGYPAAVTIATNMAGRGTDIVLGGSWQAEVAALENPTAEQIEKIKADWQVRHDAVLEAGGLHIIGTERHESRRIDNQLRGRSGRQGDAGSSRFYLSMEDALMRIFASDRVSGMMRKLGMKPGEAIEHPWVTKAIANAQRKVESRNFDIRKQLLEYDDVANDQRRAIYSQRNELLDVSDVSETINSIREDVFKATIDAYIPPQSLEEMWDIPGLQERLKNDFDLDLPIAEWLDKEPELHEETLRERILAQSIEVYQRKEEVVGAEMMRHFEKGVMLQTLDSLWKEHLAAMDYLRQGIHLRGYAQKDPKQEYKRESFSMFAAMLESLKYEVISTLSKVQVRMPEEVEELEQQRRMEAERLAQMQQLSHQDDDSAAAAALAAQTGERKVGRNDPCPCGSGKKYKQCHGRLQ
Experiment: Assay to Identify E. coli SecA ATPase Inhibitors
Format: functional
Parameters: scale not given: direction of the effect not stated beside the values
Details: 30 µM
Entries with a potency or affinity are not part of this list.
assay.metric: Percent Effect

Worked cases, Percent Effect given:
molecule: Cc1ccc(NCc2cncc3c2CCN(C(=O)C2CC=CC2)C3)nn1
assay.metric: Percent Effect
test.value: -0.965%
--
molecule: CCc1n[nH]c(C2CN(C(=O)Cn3ccccc3=O)CCO2)n1 (stereo not drawn)
assay.metric: Percent Effect
test.value: 0.155%
--
molecule: COc1ccccc1CNC(=O)N1CCCC(NS(C)(=O)=O)C1 (stereo not drawn)
assay.metric: Percent Effect
test.value: -6.57%
--
molecule: O=C(Nc1cccnc1)[C@H]1C[C@@H]2CCN(c3nncs3)C[C@H]2O1
assay.metric: Percent Effect
test.value: -0.711%
--
molecule: Cc1ccc(S(=O)(=O)NC(=O)c2c(C)noc2C(C)C)cc1C
assay.metric: Percent Effect
test.value: -2.23%
--
molecule: NCc1cnn(-c2ccccc2C(=O)NCc2ccncc2)c1
assay.metric: Percent Effect
test.value: -3.81%
--
molecule: COc1ccc(C(=O)NCC(c2cccn2C)N2CCCC2)c(OC)c1 (stereo not drawn)
assay.metric: Percent Effect
test.value: -5.97%
--
molecule: O=C1CC(c2ccc(F)c(F)c2)c2snc(C(=O)O)c2N1 (stereo not drawn)
assay.metric: Percent Effect
test.value: -0.493%

I have this molecule here, CC(CNC(=O)c1ccccc1Oc1cccnc1)N(C)C (stereo not drawn) , and I need its recorded Percent Effect.
-2.21%

Also need c1ccc(-c2cc(CN3CCC(c4ccn[nH]4)CC3)on2)cc1 , thanks.
-3.15%

Also need Cc1cc(C(=O)N[C@@H]2CCNC[C@H]2O)ccc1Cl , thanks.
-1.58%

Also need CSCCNC(=O)c1ccc(OC2CCN(CC(C)(C)C)CC2)c(Cl)c1 , thanks.
-3.94%

Also need O=C(CN1CCC(N2CCNC2=O)CC1)NCC(F)(F)F , thanks.
-3.52%

Also need Cc1n[nH]c(C)c1-c1cnc(CC2CCN(C)C2)cn1 (stereo not drawn) , thanks.
-1.87%

* * *

Target: Sialic acid-binding Ig-like lectin 9 (Homo sapiens) (UniProt Q9Y336)
Sequence (Q9Y336 whole entry): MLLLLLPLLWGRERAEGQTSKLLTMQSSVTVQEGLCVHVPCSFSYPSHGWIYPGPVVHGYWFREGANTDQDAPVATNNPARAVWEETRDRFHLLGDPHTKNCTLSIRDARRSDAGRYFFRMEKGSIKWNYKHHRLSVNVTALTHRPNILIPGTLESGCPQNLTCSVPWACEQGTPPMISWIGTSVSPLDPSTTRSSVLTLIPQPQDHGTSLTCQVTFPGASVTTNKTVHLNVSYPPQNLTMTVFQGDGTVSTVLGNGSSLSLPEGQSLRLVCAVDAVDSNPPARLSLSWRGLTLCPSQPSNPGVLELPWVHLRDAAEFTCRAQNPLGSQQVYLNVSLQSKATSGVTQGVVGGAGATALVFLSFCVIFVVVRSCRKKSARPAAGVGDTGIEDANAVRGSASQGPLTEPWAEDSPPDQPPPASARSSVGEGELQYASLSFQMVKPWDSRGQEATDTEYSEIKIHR
Test: Hs-Siglec9 ALPHAscreen SOP 20170721
Parameters: scale not given: direction of the effect not stated beside the values
Settings: 10 µM
assay.metric: Percent Effect (%)
Write the answer as a number in %, unit excluded.

Worked cases, Percent Effect given:
compound: O=C(NCc1ccccn1)[C@@H]1COC[C@H]2CN(C3CCOCC3)C[C@H]21
assay.metric: Percent Effect
test.value: -14
--
compound: CC1CCN(C(=O)c2ccn(COc3ccc(F)cc3)n2)CC1
assay.metric: Percent Effect
test.value: 10.1
--
compound: CN(CCCNc1cc(N2CCCC2CO)ncn1)S(C)(=O)=O (stereo unspecified)
assay.metric: Percent Effect
test.value: 7.67
--
compound: O=C(NC1CC1)N1CCc2ncnc(-c3ccncc3)c2CC1
assay.metric: Percent Effect
test.value: 1.38
--
compound: COCc1noc(-c2ccc(N(C)Cc3cc(C)no3)nc2)n1
assay.metric: Percent Effect
test.value: 9.06

Find Percent Effect (Sialic acid-binding Ig-like lectin 9 (Homo sapiens) (UniProt Q9Y336)) for the entry Cc1nc(CO[C@@H]2CN(Cc3cnn(C)c3)[C@@H]3COC[C@@H]32)cs1
4.76

Also need Cc1nnc(N2CC[C@H](OCC3CC3)[C@@H](Cc3ccccc3)C2)s1 , thanks.
9.81

Also need Nc1cc(N2CCCC2c2cnccn2)ncn1 (stereo unspecified) , thanks.
-2.65

Also need CN1CC(=O)N(c2cccnc2)CC12CCN(C(=O)C1CCCCC1)C2 (stereo unspecified) , thanks.
12.8

Also need CC(C)OCCCN1CCCC(c2nc3ccccc3n2C(C)C)C1 (stereo unspecified) , thanks.
-1.96

Also need CN(Cc1cnn(C)c1)C(=O)NC1CCN(Cc2ccccn2)CC1 , thanks.
-0.77

Reference source for all entries: ChEMBL document CHEMBL3988442
